- Measurement description: AUC (0 to infinity) in Candida infected ICR/Swiss neutropenic mouse at 20 mg/kg, ip
- Type: ADME, organism-based
- Design: time infinity, dose 20 mg/kg, route intraperitoneal
- Cond: plasma
*1 amine or outer side, *2 acyl side, *3 side chain or, on linkers, in order; H or OH if unused. Where a SMILES comes first, the peptide text is derived from it. Bridges are numbered along the chain shown (N, C = ends). [ ]: non-standard residue; d: D form. The star is where a group is joined. hTyr(3S-OH,4S-OH,3'-OSO3H) = N[C@H](C(=O)O)[C@H](O)[C@@H](O)c1ccc(O)c(OS(=O)(=O)O)c1; Orn(4R-OH,5R-OH) = O=C([C@H](C[C@@H](O)[C@@H](O)N[*:3])N[*:1])[*:2]; Pro(3S-OH,4S-Me) = C[C@H]1CN[C@H](C(=O)O)[C@H]1O; X1 = CCCCCOc1ccc(-c2cc(-c3ccc(C(=O)*)cc3)no2)cc1; Gln(3R-OH) = NC(=O)C[C@@H](O)[C@H](N)C(=O)O; Hyp = O=C(O)[C@@H]1C[C@@H](O)CN1
Experimental endpoint: AUC(0-inf) (µg·h/mL)

[[record]]
molecule = "CCCCCOc1ccc(-c2cc(-c3ccc(C(=O)N[C@H]4C[C@@H](O)[C@@H](O)NC(=O)[C@@H]5[C@@H](O)[C@@H](C)CN5C(=O)[C@H]([C@H](O)CC(N)=O)NC(=O)[C@H]([C@H](O)[C@@H](O)c5ccc(O)c(OS(=O)(=O)O)c5)NC(=O)[C@@H]5C[C@@H](O)CN5C(=O)[C@H]([C@@H](C)O)NC4=O)cc3)no2)cc1 [MICAFUNGIN] (X1-[Orn(4R-OH,5R-OH)]T[Hyp][hTyr(3S-OH,4S-OH,3'-OSO3H)][Gln(3R-OH)][Pro(3S-OH,4S-Me)]; lactam 1-C)"
experimental_endpoint = "AUC(0-inf)"
measured_value = 520


Data provenance: ChEMBL document CHEMBL1275496
